System: Saccharomyces cerevisiae
Assay: protein stability index of tFT-peptide fusion (C-terminal peptide) (PSI (0-1 scale)); higher = more stable (slower turnover);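 also: PSI is a weighted mean of sequencing reads over stability bins, variants kept only with over 10 reads, mCherry proximal and sfGFP distal, peptide attached via GGGS linker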
Details: genetic background: wild type; temperature: 30 C

[
  {
    "entrySequence": "GGGYHLGSCDKL",
    "protein stability index": 0.624
  },
  {
    "entrySequence": "RCGVGGSVSFWW",
    "protein stability index": 0.689
  },
  {
    "entrySequence": "EKKKKNKNQEKQ",
    "protein stability index": 0.671
  },
  {
    "entrySequence": "WHRTGPFCGFPC",
    "protein stability index": 0.766
  },
  {
    "entrySequence": "PPPPPPPASLLP",
    "protein stability index": 0.755
  },
  {
    "entrySequence": "LLLLLPPLPFVP",
    "protein stability index": 0.66
  },
  {
    "entrySequence": "VWVSRPWGRGGL",
    "protein stability index": 0.681
  },
  {
    "entrySequence": "VVCRTSPVCLGK",
    "protein stability index": 0.672
  },
  {
    "entrySequence": "VPRCLPVGLLFF",
    "protein stability index": 0.71
  },
  {
    "entrySequence": "LHLVRLEGEECL",
    "protein stability index": 0.677
  },
  {
    "entrySequence": "LGCRFCFVGVVG",
    "protein stability index": 0.494
  },
  {
    "entrySequence": "PPPGPDGVASNF",
    "protein stability index": 0.685
  },
  {
    "entrySequence": "WWSASGGQDVLK",
    "protein stability index": 0.67
  },
  {
    "entrySequence": "IIPQSCTSGGHT",
    "protein stability index": 0.711
  },
  {
    "entrySequence": "WSSLSCACVVPF",
    "protein stability index": 0.726
  },
  {
    "entrySequence": "IDVRRAIIPGLG",
    "protein stability index": 0.595
  },
  {
    "entrySequence": "KIKERKNVKGKK",
    "protein stability index": 0.685
  },
  {
    "entrySequence": "GHLGLFEEETGG",
    "protein stability index": 0.711
  },
  {
    "entrySequence": "RVFLAVCYGCRV",
    "protein stability index": 0.566
  },
  {
    "entrySequence": "SFTSSFPGSSPS",
    "protein stability index": 0.703
  },
  {
    "entrySequence": "EERHAEPRNCMF",
    "protein stability index": 0.773
  },
  {
    "entrySequence": "HQKQCRSNRHRG",
    "protein stability index": 0.657
  },
  {
    "entrySequence": "SQGSTLRGIEEP",
    "protein stability index": 0.661
  },
  {
    "entrySequence": "VGGGKRILVPRS",
    "protein stability index": 0.691
  },
  {
    "entrySequence": "PCRRPSSAPFPV",
    "protein stability index": 0.696
  },
  {
    "entrySequence": "PLLDPFFPLVFT",
    "protein stability index": 0.58
  },
  {
    "entrySequence": "DGAVRLGVGGLG",
    "protein stability index": 0.682
  },
  {
    "entrySequence": "LVFRVSLVEVVL",
    "protein stability index": 0.32
  },
  {
    "entrySequence": "GILFFLQLCACS",
    "protein stability index": 0.701
  },
  {
    "entrySequence": "KGKRSRTRKPEE",
    "protein stability index": 0.677
  },
  {
    "entrySequence": "ISVEELKSIKKK",
    "protein stability index": 0.63
  },
  {
    "entrySequence": "GCGGVEAVGGVC",
    "protein stability index": 0.586
  },
  {
    "entrySequence": "LFFFLVWSLSVF",
    "protein stability index": 0.0314
  },
  {
    "entrySequence": "PCSGSFFLEFRV",
    "protein stability index": 0.707
  },
  {
    "entrySequence": "SDKKGQKLKESQ",
    "protein stability index": 0.693
  },
  {
    "entrySequence": "FLHLTSSTPLSR",
    "protein stability index": 0.794
  },
  {
    "entrySequence": "LLCGVLFFFWVV",
    "protein stability index": 0.42
  },
  {
    "entrySequence": "LNLISGVRFSLY",
    "protein stability index": 0.675
  },
  {
    "entrySequence": "GRGFGVILGGCS",
    "protein stability index": 0.692
  },
  {
    "entrySequence": "GKKKHRSNPRRS",
    "protein stability index": 0.725
  },
  {
    "entrySequence": "PGPATKAPLRTL",
    "protein stability index": 0.671
  }
]

----------
Tested on: Saccharomyces cerevisiae
Test: protein stability index of tFT-peptide fusion (C-terminal peptide) (PSI (0-1 scale)); higher = more stable (slower turnover)
Conditions: genetic background: doa10 deletion; temperature: 30 C

[
  {
    "entrySequence": "VLLVRIFLCWVC",
    "targetOfAssay": "Saccharomyces cerevisiae",
    "protein stability index": 0.13
  },
  {
    "entrySequence": "HSRRRRPTPQSL",
    "targetOfAssay": "Saccharomyces cerevisiae",
    "protein stability index": 0.662
  },
  {
    "entrySequence": "RHIPSIILAHVV",
    "targetOfAssay": "Saccharomyces cerevisiae",
    "protein stability index": 0.172
  },
  {
    "entrySequence": "VFMTLHCITIYK",
    "targetOfAssay": "Saccharomyces cerevisiae",
    "protein stability index": 0.338
  },
  {
    "entrySequence": "RGGVRGVRSGRG",
    "targetOfAssay": "Saccharomyces cerevisiae",
    "protein stability index": 0.474
  },
  {
    "entrySequence": "MLFALLTIVFLG",
    "targetOfAssay": "Saccharomyces cerevisiae",
    "protein stability index": 0.166
  },
  {
    "entrySequence": "WRVRFRLLAGFC",
    "targetOfAssay": "Saccharomyces cerevisiae",
    "protein stability index": 0.073
  },
  {
    "entrySequence": "RFPFFLPFIAFL",
    "targetOfAssay": "Saccharomyces cerevisiae",
    "protein stability index": 0.306
  },
  {
    "entrySequence": "ESRRGILFIYIN",
    "targetOfAssay": "Saccharomyces cerevisiae",
    "protein stability index": 0.0808
  },
  {
    "entrySequence": "LAGSSSIVVVFG",
    "targetOfAssay": "Saccharomyces cerevisiae",
    "protein stability index": 0.25
  }
]

----------
Tested on: Saccharomyces cerevisiae
Assay: protein stability index of tFT-peptide fusion (C-terminal peptide) (PSI (0-1 scale)); higher = more stable (slower turnover)
Conditions: genetic background: wild type; temperature: 30 C

[
  {
    "entrySequence": "VVLVVVWWGGVE",
    "protein stability index": 0.393
  },
  {
    "entrySequence": "SFFPPFHLLFSY",
    "protein stability index": 0.532
  },
  {
    "entrySequence": "EKYGKKIRRKNR",
    "protein stability index": 0.766
  },
  {
    "entrySequence": "LASLSRPFRAKF",
    "protein stability index": 0.792
  },
  {
    "entrySequence": "PPPAPPTFPLRS",
    "protein stability index": 0.684
  },
  {
    "entrySequence": "TFTESRLRMRLG",
    "protein stability index": 0.623
  },
  {
    "entrySequence": "PPPRLSPTPSSR",
    "protein stability index": 0.721
  },
  {
    "entrySequence": "RGGGGGVWGHVV",
    "protein stability index": 0.58
  },
  {
    "entrySequence": "VVVYWGSLKRVC",
    "protein stability index": 0.263
  },
  {
    "entrySequence": "RGGGGGSAVEGG",
    "protein stability index": 0.635
  },
  {
    "entrySequence": "RVWIWHPPTVRD",
    "protein stability index": 0.625
  },
  {
    "entrySequence": "SGGGSSSGKGIR",
    "protein stability index": 0.715
  },
  {
    "entrySequence": "VGAAGGVGGSGG",
    "protein stability index": 0.629
  },
  {
    "entrySequence": "FALWAGGTWFRT",
    "protein stability index": 0.656
  },
  {
    "entrySequence": "CRHCFVLLYFDY",
    "protein stability index": 0.349
  },
  {
    "entrySequence": "VMWFVLVGLCIL",
    "protein stability index": 0.473
  },
  {
    "entrySequence": "PPSGGYFSTCPP",
    "protein stability index": 0.731
  },
  {
    "entrySequence": "LTVLPAVNCFPV",
    "protein stability index": 0.681
  },
  {
    "entrySequence": "LHPLHSSSPRVS",
    "protein stability index": 0.704
  }
]
